- measurement target: Calcitonin gene-related peptide type 1 receptor (Homo sapiens, UniProt O60894+Q16602)
- Sequence (Q16602 whole entry, one chain of several): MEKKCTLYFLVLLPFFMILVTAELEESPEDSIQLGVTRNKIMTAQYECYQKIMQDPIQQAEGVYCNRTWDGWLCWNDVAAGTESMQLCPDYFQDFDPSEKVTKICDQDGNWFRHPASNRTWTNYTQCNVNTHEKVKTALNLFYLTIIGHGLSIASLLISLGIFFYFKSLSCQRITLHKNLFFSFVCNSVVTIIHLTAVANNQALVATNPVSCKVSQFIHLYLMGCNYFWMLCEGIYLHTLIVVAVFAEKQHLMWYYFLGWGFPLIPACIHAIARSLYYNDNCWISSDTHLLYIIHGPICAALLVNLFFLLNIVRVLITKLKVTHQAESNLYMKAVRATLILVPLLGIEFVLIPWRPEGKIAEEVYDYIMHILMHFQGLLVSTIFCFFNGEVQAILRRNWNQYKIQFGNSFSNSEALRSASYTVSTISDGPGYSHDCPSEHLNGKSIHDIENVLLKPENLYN
- test name: Antagonist activity at CGRP receptor in human SK-N-MC cells assessed as inhibition of CGRP-stimulated cAMP production
- Assay type: functional, cell-based
pIC50: −log10 of the molar value.
measurement label: pIC50

[[record]]
compound = "Cc1cc(CC(CC(=O)N2CCC(N3Cc4ccccc4NC3=O)CC2)c2ccccn2)cc2cn[nH]c12 (stereo not drawn)"
value_measured = 8.06

[[record]]
compound = "Cc1cc(CC(OC(=O)N2CCC(N3Cc4ccccc4NC3=O)CC2)c2cc(C=O)ccn2)cc2cn[nH]c12 (stereo not drawn)"
value_measured = 9.55

[[record]]
compound = "Cc1ccc(C(CC(=O)N2CCC(N3Cc4ccccc4NC3=O)CC2)Cc2cc(C)c3[nH]ncc3c2)nc1 (stereo not drawn)"
value_measured = 7.74


P: Cc1cc(CC(OC(=O)N2CCC(N3Cc4ccccc4NC3=O)CC2)c2cc(CO)ccn2)cc2cn[nH]c12 (stereo not drawn)
Q: Cc1cc(CC(CC(=O)N2CCC(N3Cc4ccccc4NC3=O)CC2)c2ccc(CO)cn2)cc2cn[nH]c12 (stereo not drawn)
Decide: P or Q , by lowest recorded pIC50. Could you answer with the label of the item you picked?
Q
(Q: 8.22, P: 8.68)
